Tested on: Mycobacterium tuberculosis
assay_notes: Antimycobacterial activity against Mycobacterium tuberculosis H37Rv expressing pFCA-luxAB after 10 days by luminescence-based low-oxygen recovery assay
Assay type: functional
condition: 240 h
Quick rule for you: MIC under 4 µM gets criterion met, anything else gets criterion not met.

For orientation, consider the following solved cases.
structure_notation | tested_system | assigned_category
O=[N+]([O-])c1cn2c(n1)OC[C@@H](OCc1ccc(-c3cncc(F)c3)s1)C2 | Mycobacterium tuberculosis | criterion met
COc1ccc(-c2nc(CO[C@@H]3COc4nc([N+](=O)[O-])cn4C3)cs2)cn1 | Mycobacterium tuberculosis | criterion not met
Cn1c(CO[C@@H]2COc3nc([N+](=O)[O-])cn3C2)cnc1-c1ccc(C#N)cc1 | Mycobacterium tuberculosis | criterion not met
O=[N+]([O-])c1cn2c(n1)OC[C@@H](OCc1csc(-c3ccc(F)cc3)n1)C2 | Mycobacterium tuberculosis | criterion met
O=[N+]([O-])c1cn2c(n1)OC[C@@H](OCc1cnn(-c3ccc(OC(F)(F)F)cc3)n1)C2 | Mycobacterium tuberculosis | criterion met

Task item: Find out if reported MIC for COc1ccc(-n2cc(CO[C@@H]3COc4nc([N+](=O)[O-])cn4C3)nn2)cc1F is less than 4 µM
Reply: criterion not met

Task item: Strictly below 4 µM: is that where MIC of COc1ccc(-c2ccc(CO[C@@H]3COc4nc([N+](=O)[O-])cn4C3)s2)cn1 sits?
Reply: criterion not met

Task item: Determine whether this compound shows MIC lower than 4 µM (ties excluded): Cn1nc(-c2ccc(OC(F)(F)F)cc2)cc1CO[C@@H]1COc2nc([N+](=O)[O-])cn2C1
Reply: criterion met

====

Tested on: Mycobacterium tuberculosis
assay_notes: Antimycobacterial activity against Mycobacterium tuberculosis H37Rv expressing pFCA-luxAB after 10 days by luminescence-based low-oxygen recovery assay
Type: functional
condition: 240 h
MIC reference
Reply numerically in µM, unit not repeated.

compound | reported_metric | quantitative_readout
COc1ccc(-c2cc(CO[C@@H]3COc4nc([N+](=O)[O-])cn4C3)on2)cc1F | MIC | 2
O=[N+]([O-])c1cn2c(n1)OC[C@@H](OCc1ccc(OC(F)(F)F)cc1)C2 [PRETOMANID] | MIC | 2.6
O=[N+]([O-])c1cn2c(n1)OC[C@@H](OCc1ccc(-c3ccc(C(F)(F)F)nc3)s1)C2 | MIC | 4.4
O=[N+]([O-])c1cn2c(n1)OC[C@@H](OCc1ccc(-c3ccc(C(F)(F)F)cc3)s1)C2 | MIC | 1
O=[N+]([O-])c1cn2c(n1)OC[C@@H](OCc1cnn(-c3ccc(C(F)(F)F)cc3)n1)C2 | MIC | 2.1

Now consider the entry below.
Task item: Record O=[N+]([O-])c1cn2c(n1)OC[C@@H](OCc1cnn(-c3ccc(F)cc3)c1)C2 : what is its MIC with Mycobacterium tuberculosis?
Reply: 3.9

====

Test system: Mycobacterium tuberculosis
assay_notes: Antimycobacterial activity against Mycobacterium tuberculosis H37Rv expressing pFCA-luxAB after 10 days by luminescence-based low-oxygen recovery assay
Format: functional
condition: 240 h
Hi! Just check whether MIC is below 3 µM. Below gives yes (1), equal or above gives no (0).

structure_notation | assigned_category
O=[N+]([O-])c1cn2c(n1)OC[C@@H](OCc1cc(-c3ccc(C(F)(F)F)cc3)no1)C2 | yes (1)
O=[N+]([O-])c1cn2c(n1)OC[C@@H](OCc1ccc(-c3ccc(OC(F)(F)F)cc3)cc1)C2 | yes (1)
O=[N+]([O-])c1cn2c(n1)OC[C@@H](OCc1cccc(-c3ccc(C(F)(F)F)cc3)c1)C2 | yes (1)

Task item: Field: below-cutoff. Rule: recorded MIC strictly less than 3 µM. Subject: COc1ccc(-c2nc(CO[C@@H]3COc4nc([N+](=O)[O-])cn4C3)cs2)cc1F
Reply: yes (1)

====

The reader will find reported MIC values listed item by item below.
Test system: Mycobacterium tuberculosis
assay_notes: Antimycobacterial activity against Mycobacterium tuberculosis H37Rv expressing pFCA-luxAB after 10 days by luminescence-based low-oxygen recovery assay
Type: functional
condition: 240 h
The reply should be a number in µM, with the unit left off.

structure_notation | unit_name | quantitative_readout
N#Cc1ccc(-n2cc(CO[C@@H]3COc4nc([N+](=O)[O-])cn4C3)nn2)cc1 | µM | 11
O=[N+]([O-])c1cn2c(n1)OC[C@@H](OCc1cnn(-c3ccc(C(F)(F)F)cc3)c1)C2 | µM | 2.3
O=[N+]([O-])c1cn2c(n1)OC[C@@H](OCc1ccc(-c3ccc(OC(F)(F)F)cc3)s1)C2 | µM | 2.6
COc1ccc(-c2cccc(CO[C@@H]3COc4nc([N+](=O)[O-])cn4C3)c2)cc1F | µM | 2.2

Now for the compound whose MIC we want.
Task item: # query: MIC of entry O=[N+]([O-])c1cn2c(n1)OC[C@@H](OCc1ccc(-c3ccc(OC(F)F)cc3)s1)C2
Reply: 0.58

====

System: Mycobacterium tuberculosis
assay_notes: Antimycobacterial activity against Mycobacterium tuberculosis H37Rv after 16 to 24 hrs by microplate alamar blue assay
Format: functional
Mark each entry label 1 if its MIC sits below 1 µM, and label 0 for all others.

Task item: Strictly below 1 µM in MIC? COc1ccc(-n2cc(CO[C@@H]3COc4nc([N+](=O)[O-])cn4C3)nn2)cn1
Reply: label 0

Task item: Quick check: does COc1ccc(-c2ncc(CO[C@@H]3COc4nc([N+](=O)[O-])cn4C3)n2C)cc1F have MIC under 1 µM?
Reply: label 0

Task item: # strict comparison: is reported MIC < 1 µM? input = O=[N+]([O-])c1cn2c(n1)OC[C@@H](OCc1ccn(-c3ccc(OC(F)(F)F)cc3)n1)C2
Reply: label 1

Task item: Would you kindly verify if MIC of O=[N+]([O-])c1cn2c(n1)OC[C@@H](OCc1cnn(-c3ccc(C(F)(F)F)cc3)n1)C2 is strictly less than 1 µM?
Reply: label 1

Task item: Does the reported MIC of the following compound sit strictly below 1 µM? O=[N+]([O-])c1cn2c(n1)OC[C@@H](OCc1ccc(-c3ccc(F)nc3)s1)C2
Reply: label 1

Task item: Problem: For the compound O=[N+]([O-])c1cn2c(n1)OC[C@@H](OCc1nnn(-c3ccccc3)n1)C2 , is MIC under 1 µM?
Reply: label 0

Task item: is_below(MIC, 1 µM) for O=[N+]([O-])c1cn2c(n1)OC[C@@H](OCc1csc(-c3ccc(C(F)(F)F)cc3)n1)C2 ?
Reply: label 0

Task item: Answer whether the compound O=[N+]([O-])c1cn2c(n1)OC[C@@H](OCc1cn(-c3ccc(F)cc3)nn1)C2 has MIC strictly less than 1 µM
Reply: label 0

Task item: Lab note: MIC threshold 1 µM. Does this compound come in strictly under it? O=[N+]([O-])c1cn2c(n1)OC[C@@H](OCc1ccc(-c3cc(C(F)(F)F)ccn3)s1)C2
Reply: label 1

Task item: Consider the compound O=[N+]([O-])c1cn2c(n1)OC[C@@H](OCc1csc(-c3ccc(F)cc3)n1)C2 . Is its MIC strictly less than 1 µM?
Reply: label 1

Task item: Answer whether the compound O=[N+]([O-])c1cn2c(n1)OC[C@@H](OCc1cc(-c3ccc(C(F)(F)F)cc3)no1)C2 has MIC strictly less than 1 µM
Reply: label 1

Task item: Determine whether this compound shows MIC lower than 1 µM (ties excluded): N#Cc1ccc(-c2nc(CO[C@@H]3COc4nc([N+](=O)[O-])cn4C3)cs2)cc1
Reply: label 1

Task item: Determine if O=[N+]([O-])c1cn2c(n1)OC[C@@H](OCc1cnn(-c3ccc(OC(F)(F)F)cc3)c1)C2 shows MIC strictly lower than 1 µM.
Reply: label 1

Task item: Does the reported MIC of N#Cc1ccc(-c2cc(CO[C@@H]3COc4nc([N+](=O)[O-])cn4C3)on2)cc1 stay below 1 µM?
Reply: label 0

====

Listing of entries alongside the reported MIC.
Tested on: Mycobacterium tuberculosis
assay_notes: Antimycobacterial activity against Mycobacterium tuberculosis H37Rv after 16 to 24 hrs by microplate alamar blue assay
Type: functional
Your answer should be a plain number; it is taken to be in µM.

Consider the following illustrative entries.
structure_notation | quantitative_readout
O=[N+]([O-])c1cn2c(n1)OC[C@@H](OCc1ccc(-c3ccc(F)cc3)s1)C2 | 0.05
COc1ccc(-n2cc(CO[C@@H]3COc4nc([N+](=O)[O-])cn4C3)nn2)cc1F | 0.86
O=[N+]([O-])c1cn2c(n1)OC[C@@H](OCc1cnn(-c3ccc(OC(F)(F)F)cc3)n1)C2 | 0.03
COc1ccc(-c2ccc(CO[C@@H]3COc4nc([N+](=O)[O-])cn4C3)s2)cn1 | 0.22

Please turn your attention to the following entry.
Task item: # input compound: O=[N+]([O-])c1cn2c(n1)OC[C@@H](OCc1cnn(-c3ccc(C(F)(F)F)cc3)c1)C2 ; wanted: its MIC
Reply: 0.54
